Below are MIC values measured for Bacillus subtilis KCTC 3068.
// note: answer is a bare numeric in µM

The cases that follow already have their MIC on record.
CC[C@H](C)[C@H](NC(=O)[C@H](CCCCN)NC(=O)[C@H](CC(C)C)NC(=O)[C@H](CC(C)C)NC(=O)[C@@H](N)CCCCN)C(=O)N[C@H](C(=O)N[C@H](C(=O)N[C@H](C(=O)N[C@@H](CCCCN)C(=O)N[C@H](C(=O)N[C@@H](CC(C)C)C(=O)N[C@@H](CCCCN)C(N)=O)C(C)C)[C@@H](C)CC)C(C)C)C(C)C [KLLKIVVIKVLK]
8.97
NC(=O)[C@H](CCCN=C(N)N)NC(=O)[C@H](CCCN=C(N)N)NC(=O)[C@H](Cc1c[nH]c2ccccc12)NC(=O)[C@@H]1CCCN1C(=O)[C@H](Cc1c[nH]c2ccccc12)NC(=O)[C@H](Cc1c[nH]c2ccccc12)NC(=O)[C@@H]1CCCN1C(=O)[C@H](Cc1c[nH]c2ccccc12)NC(=O)[C@H](CCCN=C(N)N)NC(=O)[C@@H](N)CCCN=C(N)N [RRWPWWPWRR]
1.26
CC(C)C[C@H](NC(=O)[C@H](Cc1ccccc1)NC(=O)[C@@H]1CCCN1C(=O)[C@H](Cc1c[nH]c2ccccc12)NC(=O)[C@H](Cc1c[nH]c2ccccc12)NC(=O)[C@H](Cc1c[nH]c2ccccc12)NC(=O)[C@@H]1CCCN1C(=O)[C@H](Cc1ccccc1)NC(=O)[C@H](CCCNC(=N)N)NC(=O)[C@H](CCCNC(=N)N)NC(=O)[C@@H](N)C(C)C)C(=O)N[C@@H](CCCNC(=N)N)C(=O)N[C@@H](CCCNC(=N)N)C(=O)O [VRRFPWWWPFLRR]
8.41
C[C@@H](O)[C@H](NC(=O)[C@H](Cc1c[nH]c2ccccc12)NC(=O)[C@H](Cc1c[nH]c2ccccc12)NC(=O)[C@@H](NC(=O)[C@H](CCCCN)NC(=O)[C@H](Cc1c[nH]c2ccccc12)NC(=O)[C@H](Cc1c[nH]c2ccccc12)NC(=O)[C@@H](NC(=O)[C@H](CCCCN)NC(=O)[C@@H](N)CCCCN)[C@@H](C)O)[C@@H](C)O)C(=O)N[C@@H](CCCCN)C(=O)N[C@@H](Cc1c[nH]c2ccccc12)C(=O)O [KKTWWKTWWTKW]
2
CC[C@H](C)[C@H](NC(=O)[C@H](CC(C)C)NC(=O)[C@H](CC(C)C)NC(=O)[C@@H](N)CC(C)C)C(=O)N[C@H](C(=O)N[C@@H](CC(C)C)C(=O)N[C@@H](CCCN=C(N)N)C(=O)N[C@@H](CCCCN)C(=O)N[C@@H](CCCCN)C(N)=O)C(C)C [LLLIVLRKK]
1.83

Turning now to a further record.
Kindly note: Bacillus subtilis KCTC 3068, NC(=O)[C@H](CCCN=C(N)N)NC(=O)[C@H](CCCN=C(N)N)NC(=O)[C@H](Cc1c[nH]c2ccccc12)NC(=O)[C@H](CCCN=C(N)N)NC(=O)[C@H](CCCN=C(N)N)NC(=O)[C@H](Cc1c[nH]c2ccccc12)NC(=O)[C@H](CCCN=C(N)N)NC(=O)[C@H](CCCN=C(N)N)NC(=O)[C@H](Cc1c[nH]c2ccccc12)NC(=O)[C@H](CCCN=C(N)N)NC(=O)[C@@H](N)CCCN=C(N)N [RRWRRWRRWRR] , MIC value reported: 4

###

Tested on: Escherichia coli NCTC 10418
measure_name: MIC (µM)
Only the number, expressed in µM, is required.

Record "CC[C@H](C)[C@H](NC(=O)CNC(=O)[C@@H](NC(=O)[C@H](C)NC(=O)[C@@H](NC(=O)[C@H](CCCCN)NC(=O)[C@@H]1CCCN1C(=O)[C@@H](NC(=O)[C@H](CC(C)C)NC(=O)[C@H](CO)NC(=O)[C@H](CC(C)C)NC(=O)[C@@H](N)Cc1ccccc1)[C@@H](C)CC)[C@@H](C)CC)[C@@H](C)O)C(=O)N[C@@H](C)C(=O)N[C@@H](C)C(=O)N[C@@H](CC(C)C)C(=O)N[C@@H](C)C(=O)N[C@@H](CCCCN)C(=O)N[C@@H](Cc1cnc[nH]1)C(=O)N[C@@H](CC(C)C)C(N)=O" ; system Escherichia coli NCTC 10418; MIC = 8

###

System: Pseudomonas aeruginosa ATCC 27853
Assay: ≥ marks a high value that may be exact or a test limit, other limits are often not marked, values filed in µg/mL are converted to µM
measure_name: MIC (µM)
Field format: number, assumed µM, no unit text.

For this compound ( "CC(=O)N[C@@H](CC(C)C)C(=O)N[C@@H](Cc1ccccc1)C(=O)N[C@@H](CCCCN)C(=O)N[C@@H](CCCCN)C(=O)N[C@@H](CC(N)=O)C(=O)N[C@@H](CCCCN)C(=O)N[C@@H](CC(C)C)C(=O)N[C@@H](Cc1c[nH]c2ccccc12)C(=O)N[C@@H](Cc1ccccc1)C(=O)N[C@@H](CCCCN)C(=O)N[C@@H](CO)C(=O)N[C@@H](CCCCN)C(=O)N[C@@H](CCCCN)C(=O)N[C@@H](Cc1c[nH]c2ccccc12)C(=O)N[C@@H](CC(C)C)C(N)=O" ), measured MIC is 50

###

System: Pseudomonas aeruginosa ATCC 27853
Test: ≥ marks a high value that may be exact or a test limit, other limits are often not marked, values filed in µg/mL are converted to µM
Entries annotated with measured MIC
Lab book: enter the figure in µM, no units written.

These solved cases illustrate the format of a correct answer.
CC[C@H](C)[C@H](NC(=O)[C@H](Cc1c[nH]c2ccccc12)NC(=O)[C@H](CCCCN)NC(=O)[C@H](CC(C)C)NC(=O)[C@H](CC(C)C)NC(=O)CN)C(=O)N[C@@H](CCCCN)C(=O)N[C@H](C(=O)N[C@@H](CC(C)C)C(=O)N[C@@H](CC(C)C)C(N)=O)[C@@H](C)O [GLLKWIKTLL]
28.4
CC[C@H](C)[C@H](NC(=O)CNC(=O)[C@@H](NC(=O)[C@H](C)NC(=O)[C@@H](NC(=O)[C@H](CCCCN)NC(=O)[C@@H]1CCCN1C(=O)[C@@H](NC(=O)[C@H](CC(C)C)NC(=O)[C@H](CO)NC(=O)[C@H](CC(C)C)NC(=O)[C@@H](N)Cc1ccccc1)[C@@H](C)CC)[C@@H](C)CC)[C@@H](C)O)C(=O)N[C@@H](C)C(=O)N[C@@H](C)C(=O)N[C@@H](CC(C)C)C(=O)N[C@@H](C)C(=O)N[C@@H](CCCCN)C(=O)N[C@@H](Cc1cnc[nH]1)C(=O)N[C@@H](CC(C)C)C(N)=O [FLSLIPKIATGIAALAKHL]
32
CC[C@H](C)[C@H](NC(=O)[C@@H](NC(=O)[C@@H]1CCCN1C(=O)[C@H](CC(C)C)NC(=O)[C@@H](N)Cc1ccccc1)[C@@H](C)CC)C(=O)NCC(=O)N[C@@H](CCCCN)C(=O)N[C@@H](CC(C)C)C(=O)N[C@@H](CC(C)C)C(=O)N[C@@H](CO)C(=O)NCC(=O)N[C@@H](CC(C)C)C(=O)N[C@@H](CC(C)C)C(=O)O [FLPIIGKLLSGLL]
28.9

Could you now consider this next compound?
MIC for C[C@@H](O)[C@H](NC(=O)[C@H](CCCCN)NC(=O)[C@H](Cc1c[nH]c2ccccc12)NC(=O)[C@H](CCCN=C(N)N)NC(=O)[C@H](CCCCN)NC(=O)[C@H](Cc1c[nH]c2ccccc12)NC(=O)[C@H](Cc1c[nH]c2ccccc12)NC(=O)CN)C(=O)N[C@@H](Cc1c[nH]c2ccccc12)C(=O)N[C@@H](Cc1c[nH]c2ccccc12)C(N)=O [GWWKRWKTWW] is 8

###

Tested on: Pseudomonas aeruginosa
Assay: ≥ marks a high value that may be exact or a test limit, other limits are often not marked, values filed in µg/mL are converted to µM
measure_name: MIC (µM)
Reply numerically in µM, unit not repeated.

CC(C)[C@H](NC(=O)[C@H](CCCN=C(N)N)NC(=O)[C@H](Cc1c[nH]c2ccccc12)NC(=O)[C@H](CCCN=C(N)N)NC(=O)[C@@H](NC(=O)[C@H](CCCCN)NC(=O)[C@H](Cc1c[nH]c2ccccc12)NC(=O)[C@H](CCCN=C(N)N)NC(=O)[C@@H](NC(=O)[C@H](CCCN=C(N)N)NC(=O)[C@@H](N)Cc1c[nH]c2ccccc12)C(C)C)[C@@H](C)O)C(=O)N[C@@H](CCCCN)C(N)=O
32

# next compound below
Consider "CC[C@H](C)[C@H](N)C(=O)N[C@@H](CC(C)C)C(=O)N[C@@H](C)C(=O)N[C@@H](Cc1c[nH]c2ccccc12)C(=O)N[C@@H](CCCCN)C(=O)N[C@@H](Cc1c[nH]c2ccccc12)C(=O)N1CCC[C@H]1C(=O)N[C@@H](Cc1c[nH]c2ccccc12)C(=O)N[C@@H](Cc1c[nH]c2ccccc12)C(=O)N1CCC[C@H]1C(=O)N[C@@H](Cc1c[nH]c2ccccc12)C(=O)N[C@@H](CCCN=C(N)N)C(=O)N[C@@H](CCCN=C(N)N)C(N)=O" . Its measured MIC is 50

All values here come from DBAASP.
